- target-entity: human mPGES-1 (Homo sapiens, UniProt O14684)
- Construct: made in house
- protocol-text: in vitro inhibitory activity against human mPGES-1 (PGE2 enzyme immunoassay)
- Assay type: biochemical
- condition-summary: 10 μM, single-concentration screening; read-out: Inhibition (%) at 10 μM
assay-readout: inhibition at 10 µM (%)

{"compound": "CO/N=C(\\C(=O)N[C@@H]1C(=O)N2C(C(=O)O)=C(CSc3nc(=O)c(=O)[nH]n3C)CS[C@H]12)c1csc(N)n1", "target-entity": "human mPGES-1 (Homo sapiens, UniProt O14684)", "assay-readout": "inhibition at 10 µM", "readout-unit": "%", "obs-value": 57}
{"compound": "C[C@]12C=CC(=O)C=C1CC[C@@H]1[C@@H]2[C@@H](O)C[C@@]2(C)[C@H]1CC[C@]2(O)C(=O)CO", "target-entity": "human mPGES-1 (Homo sapiens, UniProt O14684)", "assay-readout": "inhibition at 10 µM", "readout-unit": "%", "obs-value": 44}
{"compound": "CC(C)(C)C(=O)OCOP(=O)(COCCn1cnc2c(N)ncnc21)OCOC(=O)C(C)(C)C", "target-entity": "human mPGES-1 (Homo sapiens, UniProt O14684)", "assay-readout": "inhibition at 10 µM", "readout-unit": "%", "obs-value": 19}
{"compound": "COc1cc(C)c(/C=C/C(C)=C/C=C/C(C)=C/C(=O)O)c(C)c1C", "target-entity": "human mPGES-1 (Homo sapiens, UniProt O14684)", "assay-readout": "inhibition at 10 µM", "readout-unit": "%", "obs-value": 83}
{"compound": "OCCN(CCO)c1nc(N2CCCCC2)c2nc(N(CCO)CCO)nc(N3CCCCC3)c2n1", "target-entity": "human mPGES-1 (Homo sapiens, UniProt O14684)", "assay-readout": "inhibition at 10 µM", "readout-unit": "%", "obs-value": 36}
{"compound": "C=C1/C(=C\\C=C2/CCC[C@]3(C)[C@@H]([C@H](C)/C=C/[C@@H](O)C4CC4)CC[C@@H]23)C[C@@H](O)C[C@@H]1O", "target-entity": "human mPGES-1 (Homo sapiens, UniProt O14684)", "assay-readout": "inhibition at 10 µM", "readout-unit": "%", "obs-value": 68}
{"compound": "CS(=O)(=O)CCNCc1ccc(-c2ccc3ncnc(Nc4ccc(OCc5cccc(F)c5)c(Cl)c4)c3c2)o1 [Lapatinib Ditosylate]", "target-entity": "human mPGES-1 (Homo sapiens, UniProt O14684)", "assay-readout": "inhibition at 10 µM", "readout-unit": "%", "obs-value": 99}

----------
Target protein (sequence): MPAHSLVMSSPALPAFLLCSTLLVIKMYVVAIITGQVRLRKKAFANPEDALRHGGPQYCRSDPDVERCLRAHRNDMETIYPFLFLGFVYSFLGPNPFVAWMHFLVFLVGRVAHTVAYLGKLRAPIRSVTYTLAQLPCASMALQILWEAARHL
assay-readout: IC50 (µM)

{"compound": "Cc1ccccc1C(=O)Nc1ccc(C(=O)N2CCCC(O)c3cc(Cl)ccc32)c(C)c1 (stereo not drawn)", "assay-readout": "IC50", "readout-unit": "µM", "obs-value": 10.2}
{"compound": "CO[C@@]1(NC(=O)C2SC(=C(C(N)=O)C(=O)[O-])S2)C(=O)N2C(C(=O)[O-])=C(CSc3nnnn3C)CS[C@@H]21.[Na+].[Na+] (stereo partly drawn) [Cefotetan Disodium]", "assay-readout": "IC50", "readout-unit": "µM", "obs-value": 13.5}
{"compound": "COCC1=C(C(=O)OC(C)OC(=O)OC(C)C)N2C(=O)[C@@H](NC(=O)/C(=N\\OC)c3csc(N)n3)[C@H]2SC1 (stereo partly drawn)", "assay-readout": "IC50", "readout-unit": "µM", "obs-value": 29.7}

From: patent US11103509B2
